Target: T1, UNK ZnF1-6 (called full-length) (human, UniProt Q9C0B0 30-357)
T1 sequence: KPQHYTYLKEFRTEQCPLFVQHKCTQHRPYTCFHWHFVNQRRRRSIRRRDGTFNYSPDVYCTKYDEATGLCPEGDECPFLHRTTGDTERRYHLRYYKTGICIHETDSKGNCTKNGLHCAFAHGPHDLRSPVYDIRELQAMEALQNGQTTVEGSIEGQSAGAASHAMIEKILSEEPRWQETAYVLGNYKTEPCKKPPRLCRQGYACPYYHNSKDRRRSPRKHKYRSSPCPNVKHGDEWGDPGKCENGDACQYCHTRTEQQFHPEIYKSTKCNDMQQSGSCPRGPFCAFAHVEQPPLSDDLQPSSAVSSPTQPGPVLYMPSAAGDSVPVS
Experiment: nsRBNS (natural sequence RNA bind-n-seq); RBNS binding buffer (assumed for nsRBNS): 25 mM Tris pH 7.5, 150 mM KCl, 3 mM MgCl2, 0.01% Triton X-100, 500 ug/ml BSA, 20 U/ml SUPERase-In, 4 C; UNK is unkempt and MSI1 is Musashi-1; names of the RNAs are library labels; protein concentration not given here; high values mean tight binding
In all, about 5,800 sequences were measured (“enrichment r”: median about 0.68, highest 2% from about 11 on). The list comes from a sample in which the highest values are over-represented; it also holds close analogues and randomly drawn sequences.
reported_property: binding signal

chr12:76029359:76029534:-|3pUTR|ENSG00000139289|msi1|FALSE|unique (ssRNA) RNA: GGGAGUUCUACAGUCCGACGAUCAGAAGUUUAAAAAGCUAAAAGUUAAAAAUGGUGUAAUUAUGAAAAUCUAACACUCAAGAUAGUUUCUAAAAGGAAAUCAGUAGUUAAGGAUACCUGAUUUCAAAAUAUUUAAAGCAUAACCAACAGAGGAUUGAGCAUCA | 1.92 enrichment R
chr5:52955293:52955406:+|3pUTR|ENSG00000213949|unk|total|mutant (ssRNA) RNA: GGGAGUUCUACAGUCCGACGAUCUACCAACCAGUGUGAGCUGACUUCAGCACACCACUGAGACAGAUUACACGACCGACAGACCGACCGACCGACCGACCGACCGACCGACCGACCGACCGACCGAUAUUGACCGAGAACAUGCAACAGAGGAUUGAGCAUCA | 0.427 enrichment R

Now for a further binder.
Look up binding signal: chr2:206311781:206311882:+|3pUTR|ENSG00000204186|unk|total|mutant (ssRNA) RNA: GGGAGUUCUACAGUCCGACGAUCCCGUGUUCCGAGUCCUUUCAUUUUAAGAUUCAGAAACAGCCUUUGUCCAACAUUUUCUGCCGAAGAACUUCAUCUUAAUUUAUGUCACAAAAUAAUUCCGCACCGUAUACCGAAUUUUGUCAACAGAGGAUUGAGCAUCA 0.453 enrichment R

Recorded values, source paper PMC12136788.
